Values from paper PMC8198043

Assay: Photophysical studies (absorption and emission in DMSO)
Assay type: physicochemical
Protocol: The absorption spectra in dimethyl sulfoxide solutions were obtained on a Shimadzu UV-2501 PC spectrophotometer (1 cm path length quartz cell) and the emission spectra were recorded on a JASCO spectrofluorometer. Molar absorption coefficients were determined using 4 measurements in the concentration range 10^−3–10^−6 mol.L^−1. Fluorescence quantum yields were determined by comparison with fluorescein in 0.1 M NaOH water solution as a fluorescence standard (φf = 90%).
REPORTED PROPERTY: Stokes’ Shift (nm)

>  <COMPOUND>
CCCOc1ccc2c3c(n/c(=N/c4ccccc4C)n2-c2ccccc2C)-c2ccccc2Sc13 [Compound 14]

>  <REPORTED PROPERTY>
Stokes’ Shift

>  <OBSERVED MEASUREMENT>
80

$$$$
>  <COMPOUND>
CCCOc1ccc2ncnc3c2c1Sc1ccccc1-3 [Compound 12]

>  <REPORTED PROPERTY>
Stokes’ Shift

>  <OBSERVED MEASUREMENT>
89

$$$$
>  <COMPOUND>
CCCOc1ccc2nc(N)nc3c2c1Sc1ccccc1-3 [Compound 11]

>  <REPORTED PROPERTY>
Stokes’ Shift

>  <OBSERVED MEASUREMENT>
92

$$$$
>  <COMPOUND>
CCCOc1ccc2nc(NCc3ccccc3Cl)nc3c2c1Sc1ccccc1-3 [Compound 13]

>  <REPORTED PROPERTY>
Stokes’ Shift

>  <OBSERVED MEASUREMENT>
91

$$$$
